Each entry below lists one item and its recorded kon value.
Biological target: T1, recombinant human FGF23 (R179Q) (human, UniProt Q9GZV9 25-251)
T1 construct: also called rhFGF23(R179Q); hFGF23(R179Q)
T1 sequence (looked up): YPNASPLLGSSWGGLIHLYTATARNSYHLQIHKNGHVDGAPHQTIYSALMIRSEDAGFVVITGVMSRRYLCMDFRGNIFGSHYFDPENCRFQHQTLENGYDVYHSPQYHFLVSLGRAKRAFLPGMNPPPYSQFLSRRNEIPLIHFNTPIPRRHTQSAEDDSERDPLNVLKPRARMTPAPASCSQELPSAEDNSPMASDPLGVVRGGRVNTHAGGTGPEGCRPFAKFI
Experiment: SPR, antibody captured on hIgG chip, rhFGF23(R179Q) analyte
Give the number; M⁻¹ s⁻¹ is assumed, so skip it.

{"columns": ["binder", "reported"],
 "data": [
  ["UGX162 (antibody, human IgG1, kappa, V domains shown, also called HC:S59L) VH: QVQLVQSGAEVKKPGASVKVSCKASGYTFTNHYMHWVRQAPGQGLEWMGIINPISGSTLNAQKFQGRVTMTRDTSTSTVYMELSSLRSEDTAVYYCARDIVDAFDFWGQGTMVTVSS VL: AIQLTQSPSSLSASVGDRVTITCRASQGISSALVWYQQKPGKAPKLLIYDASSLESGVPSRFSGSGSGTDFTLTISSLQPEDFATYYCQQFNDYFTFGPGTKVDIKR", "4.79e+06"],
  ["UGX130 (antibody, human IgG1, kappa, V domains shown, also called LC:S53E) VH: QVQLVQSGAEVKKPGASVKVSCKASGYTFTNHYMHWVRQAPGQGLEWMGIINPISGSTSNAQKFQGRVTMTRDTSTSTVYMELSSLRSEDTAVYYCARDIVDAFDFWGQGTMVTVSS VL: AIQLTQSPSSLSASVGDRVTITCRASQGISSALVWYQQKPGKAPKLLIYDASELESGVPSRFSGSGSGTDFTLTISSLQPEDFATYYCQQFNDYFTFGPGTKVDIKR", "1.03e+07"],
  ["UGX137 (antibody, human IgG1, kappa, V domains shown, also called UGX035; LC:N92F) VH: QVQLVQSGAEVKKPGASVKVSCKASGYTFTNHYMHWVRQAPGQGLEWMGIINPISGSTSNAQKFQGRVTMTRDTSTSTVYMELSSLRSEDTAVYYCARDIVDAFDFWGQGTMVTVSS VL: AIQLTQSPSSLSASVGDRVTITCRASQGISSALVWYQQKPGKAPKLLIYDASSLESGVPSRFSGSGSGTDFTLTISSLQPEDFATYYCQQFFDYFTFGPGTKVDIKR", "5.04e+06"]
]}

// lookup kon for UGX178 (antibody, human IgG1, kappa, V domains shown, also called HC:N31F, HC:S59F) VH: QVQLVQSGAEVKKPGASVKVSCKASGYTFTFHYMHWVRQAPGQGLEWMGIINPISGSTFNAQKFQGRVTMTRDTSTSTVYMELSSLRSEDTAVYYCARDIVDAFDFWGQGTMVTVSS VL: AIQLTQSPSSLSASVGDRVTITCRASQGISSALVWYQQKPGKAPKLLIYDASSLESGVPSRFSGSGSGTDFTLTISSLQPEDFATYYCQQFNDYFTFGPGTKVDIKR
6.33e+06
